The following molecules are shown together with reported pKi values.
- target_desc: GAK (Homo sapiens)
- Sequence (O14976 12-347 limits assumed): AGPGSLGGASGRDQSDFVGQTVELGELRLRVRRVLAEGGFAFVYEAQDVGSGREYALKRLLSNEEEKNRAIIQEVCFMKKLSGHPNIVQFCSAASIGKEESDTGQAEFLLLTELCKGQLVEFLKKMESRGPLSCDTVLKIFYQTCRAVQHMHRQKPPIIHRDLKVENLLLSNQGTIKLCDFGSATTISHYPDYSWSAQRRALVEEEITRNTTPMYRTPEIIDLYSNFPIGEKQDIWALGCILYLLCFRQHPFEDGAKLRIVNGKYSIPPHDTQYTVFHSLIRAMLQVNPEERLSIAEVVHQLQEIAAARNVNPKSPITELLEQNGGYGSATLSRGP
- measurement_notes: biochemical
pKi: −log10 of the molar value.
value_type: pKi

[[record]]
smiles_str = "C#Cc1cccc(Nc2ncnc3cc(Br)ccc23)c1"
value_type = "pKi"
numeric_result = 7.51

[[record]]
smiles_str = "C#Cc1cccc(Nc2ncnc3ccc(F)cc23)c1"
value_type = "pKi"
numeric_result = 7.15

[[record]]
smiles_str = "C#Cc1cccc(Nc2ncnc3ccc(OC)cc23)c1"
value_type = "pKi"
numeric_result = 7.62

[[record]]
smiles_str = "C#Cc1cccc(Nc2ncnc3cc(F)ccc23)c1"
value_type = "pKi"
numeric_result = 7.66

[[record]]
smiles_str = "C#Cc1cccc(Nc2ncnc3cc(I)ccc23)c1"
value_type = "pKi"
numeric_result = 7.70


====

The following compounds are shown together with reported pKi values.
- target_desc: SLK (Homo sapiens, UniProt Q9H2G2)
- Sequence (Q9H2G2 34-292): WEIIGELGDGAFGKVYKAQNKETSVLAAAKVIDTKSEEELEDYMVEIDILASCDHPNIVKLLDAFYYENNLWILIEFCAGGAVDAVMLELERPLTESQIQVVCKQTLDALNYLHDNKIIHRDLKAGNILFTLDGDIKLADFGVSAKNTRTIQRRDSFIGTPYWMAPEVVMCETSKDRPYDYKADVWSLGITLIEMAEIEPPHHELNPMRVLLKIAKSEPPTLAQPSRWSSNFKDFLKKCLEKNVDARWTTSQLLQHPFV
- measurement_notes: TR-FRET binding displacement assay
pKi: −log10 of the molar value.
value_type: pKi

[[record]]
compound = "COc1cc(Nc2ccnc3ccc(C#N)cc23)cc(OC)c1OC [compound 13, 13]"
target_desc = "SLK (Homo sapiens, UniProt Q9H2G2)"
relation = "="
numeric_result = 4.72

[[record]]
compound = "COc1cc(Nc2ccnc3cc(Cl)ccc23)cc(OC)c1OC [compound 17, 17]"
target_desc = "SLK (Homo sapiens, UniProt Q9H2G2)"
relation = "="
numeric_result = 5.68

[[record]]
compound = "COc1cc(Nc2ccnc3ccc(Br)cc23)cc(OC)c1OC [compound 2, SGC-GAK-1]"
target_desc = "SLK (Homo sapiens, UniProt Q9H2G2)"
relation = "="
numeric_result = 4.47

[[record]]
compound = "COc1cc(Nc2ccnc3ccccc23)cc(OC)c1OC [compound 7, 7]"
target_desc = "SLK (Homo sapiens, UniProt Q9H2G2)"
relation = "<"
numeric_result = 4.26

[[record]]
compound = "COc1cc(Nc2ccnc3cc(I)ccc23)cc(OC)c1OC [compound 19, 19]"
target_desc = "SLK (Homo sapiens, UniProt Q9H2G2)"
relation = "="
numeric_result = 5.77

[[record]]
compound = "COc1cc(Nc2ccnc3cc(F)ccc23)cc(OC)c1OC [compound 16, 16]"
target_desc = "SLK (Homo sapiens, UniProt Q9H2G2)"
relation = "="
numeric_result = 4.77

[[record]]
compound = "COc1cc(Nc2ccnc3cc(C(F)(F)F)ccc23)cc(OC)c1OC [compound 20, 20]"
target_desc = "SLK (Homo sapiens, UniProt Q9H2G2)"
relation = "="
numeric_result = 5.49

[[record]]
compound = "C#Cc1cccc(Nc2c(C#N)cnc3cc(I)ccc23)c1 [compound 86]"
target_desc = "SLK (Homo sapiens, UniProt Q9H2G2)"
relation = "="
numeric_result = 7.12

[[record]]
compound = "COc1ccc2c(Nc3cc(OC)c(OC)c(OC)c3)ccnc2c1 [compound 22, 22]"
target_desc = "SLK (Homo sapiens, UniProt Q9H2G2)"
relation = "="
numeric_result = 4.89

[[record]]
compound = "COc1cc(Nc2ccnc3cc(Br)ccc23)cc(OC)c1OC [compound 18, 18]"
target_desc = "SLK (Homo sapiens, UniProt Q9H2G2)"
relation = "="
numeric_result = 5.57


====

- target_desc: STK10 (Homo sapiens)
- Sequence (O94804 36-294 limits assumed): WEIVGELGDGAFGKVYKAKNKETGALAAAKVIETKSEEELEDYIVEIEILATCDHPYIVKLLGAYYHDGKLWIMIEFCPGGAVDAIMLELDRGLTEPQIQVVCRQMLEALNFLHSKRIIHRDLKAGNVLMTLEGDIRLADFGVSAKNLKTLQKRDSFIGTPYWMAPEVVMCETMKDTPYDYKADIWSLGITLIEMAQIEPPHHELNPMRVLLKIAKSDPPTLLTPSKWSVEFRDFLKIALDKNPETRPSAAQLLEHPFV
- measurement_notes: biochemical
pKi: −log10 of the molar value.
value_type: pKi

[[record]]
smiles_str = "C#Cc1cccc(Nc2c(C#N)cnc3cc(OC)c(OC)cc23)c1"
numeric_result = 7.57

